test system: Quadruplex DNA; assay: Stabilization of F21T telomeric G-quadruplex DNA (unknown origin) assessed as change in melting temperature at 1 uM by FRET assay; assay type: nucleic-acid assay
ΔTm by entry:
PROPERTY: ΔTm (°C)

STRUCTURE_STRING	TARGET_SYSTEM	READOUT_VALUE
CN1CCN(c2cc3c(cc2F)/C(=C/c2nc4cc(NCCN5CCCC5)c(F)cc4c(=O)[nH]2)C(=O)N3)CC1	Quadruplex DNA	22.7
CN(C)CCCNc1c2ccccc2nc2c1[nH]c1ccccc12	Quadruplex DNA	11.6
O=C1Nc2cc(N3CCOCC3)c(F)cc2/C1=C/c1nc2cc(NCCCN3CCCC3)c(F)cc2c(=O)[nH]1	Quadruplex DNA	8.4
CN(C)CCCN(C)c1cc2c(cc1F)/C(=C/c1nc3cc(N4CCN(C)CC4)c(F)cc3c(=O)[nH]1)C(=O)N2	Quadruplex DNA	15.6

---

test system: Quadruplex DNA; test: Stabilization of F21T telomeric G-quadruplex DNA (unknown origin) assessed as change in melting temperature at 1 uM by FRET assay; format: nucleic-acid assay
Note to self: use 1 only for ΔTm readings below 10 °C; a reading exactly at 10 °C still gets 0.

STRUCTURE_STRING	TARGET_SYSTEM	DISCRETE_LABEL
CN(C)CCCNc1cc2nc(/C=C3\C(=O)Nc4ccccc43)[nH]c(=O)c2cc1F	Quadruplex DNA	0
CN(C)CCCNc1cc2nc(/C=C3/C(=O)Nc4ccccc43)n(CCCN(C)C)c(=O)c2cc1F	Quadruplex DNA	1
CCN(CC)CCCNc1cc2nc(/C=C3\C(=O)Nc4cc(N5CCN(C)CC5)ccc43)[nH]c(=O)c2cc1F	Quadruplex DNA	0
CN(C)CCCNc1cc2nc(/C=C3/C(=O)Nc4cc(N5CCN(C)CC5)ccc43)n(C)c(=O)c2cc1F	Quadruplex DNA	1

---

tested on: U2OS; experiment: Antiproliferative activity against human U2OS cells after 48 hrs by MTT assay; assay type: functional, cell-based

STRUCTURE_STRING	VALUE_PREFIX	IC50 (µM)
CN1CCN(c2cc3c(cc2F)/C(=C/c2nc4cc(N5CCN(C)CC5)c(F)cc4c(=O)[nH]2)C(=O)N3)CC1	>	50
O=C1Nc2ccccc2/C1=C/c1nc2cc(NCCCN3CCOCC3)c(F)cc2c(=O)[nH]1	>	50
O=C1Nc2cc(N3CCOCC3)c(F)cc2/C1=C/c1nc2cc(NCCCN3CCOCC3)c(F)cc2c(=O)[nH]1	>	50
CN1CCN(c2cc3c(cc2F)/C(=C/c2nc4cc(NCCCn5ccnc5)c(F)cc4c(=O)[nH]2)C(=O)N3)CC1	>	50
CN(C)CCCN(C)c1cc2c(cc1F)/C(=C/c1nc3cc(NCCN(C)C)c(F)cc3c(=O)[nH]1)C(=O)N2	=	9.2
CN1CCN(CCCNc2cc3nc(/C=C4\C(=O)Nc5cc(N6CCN(C)CC6)c(F)cc54)[nH]c(=O)c3cc2F)CC1	=	12.7
CCN(CC)CCNc1cc2nc(/C=C3\C(=O)Nc4cc(N5CCN(C)CC5)c(F)cc43)[nH]c(=O)c2cc1F	=	8.2
CN1CCN(c2ccc3c(c2)NC(=O)/C3=C\c2nc3cc(NCCN4CCCCC4)c(F)cc3c(=O)[nH]2)CC1	=	3.6

---

experiment: Stabilization of F10T hairpin duplex DNA (unknown origin) assessed as change in melting temperature at 1 uM by FRET assay
// reported ΔTm per item
PROPERTY: ΔTm (°C)

STRUCTURE_STRING	READOUT_VALUE
CN(C)CCCNc1cc2nc(/C=C3\C(=O)Nc4cc(N5CCOCC5)c(F)cc43)[nH]c(=O)c2cc1F	0.1
CCN(CC)CCCNc1cc2nc(/C=C3\C(=O)Nc4cc(N5CCN(C)CC5)c(F)cc43)[nH]c(=O)c2cc1F	0.1
CN1CCN(c2cc3c(cc2F)/C(=C/c2nc4cc(NCCCn5ccnc5)c(F)cc4c(=O)[nH]2)C(=O)N3)CC1	0.5
O=C1Nc2cc(N3CCOCC3)c(F)cc2/C1=C/c1nc2cc(NCCCN3CCOCC3)c(F)cc2c(=O)[nH]1	0.2
CN1CCN(c2cc3c(cc2F)/C(=C/c2nc4cc(NCCCN5CCCC5)c(F)cc4c(=O)[nH]2)C(=O)N3)CC1	0.3
CN(C)CCCNc1cc2nc(/C=C3/C(=O)Nc4ccccc43)n(CCCN(C)C)c(=O)c2cc1F	0.1
CN1CCN(CCCNc2cc3nc(/C=C4\C(=O)Nc5cc(N6CCN(C)CC6)c(F)cc54)[nH]c(=O)c3cc2F)CC1	0.1
CN1CCN(c2cc3c(cc2F)/C(=C/c2nc4cc(N5CCN(C)CC5)c(F)cc4c(=O)[nH]2)C(=O)N3)CC1	0.1

---

Parameter Kd: see the listing below.
target: Quadruplex DNA; assay: Binding affinity to HTG21 telomeric G-quadruplex DNA (unknown origin) by SPR method

STRUCTURE_STRING	Kd
CN1CCN(c2cc3c(cc2F)/C(=C/c2nc4cc(NCCCn5ccnc5)c(F)cc4c(=O)[nH]2)C(=O)N3)CC1	21 µM
CN(C)CCCNc1cc2nc(/C=C3\C(=O)Nc4cc(N5CCOCC5)c(F)cc43)[nH]c(=O)c2cc1F	> 40 µM
CN(C)CCCNc1cc2nc(/C=C3\C(=O)Nc4cc(N5CCN(C)CC5)ccc43)[nH]c(=O)c2cc1F	8.1 µM
CN1CCN(c2cc3c(cc2F)/C(=C/c2nc4cc(NCCN5CCCC5)c(F)cc4c(=O)[nH]2)C(=O)N3)CC1	21 µM
CN(C)CCCNc1cc2nc(/C=C3\C(=O)Nc4cc(N(C)CCCN(C)C)c(F)cc43)[nH]c(=O)c2cc1F	18 µM
CN(C)CCCNc1cc2nc(/C=C3\C(=O)Nc4cc(N5CCN(C)CC5)c(F)cc43)[nH]c(=O)c2cc1F	7.6 µM
CN(C)CCCNc1ccc2c(=O)[nH]c(/C=C3\C(=O)Nc4cc(N5CCN(C)CC5)ccc43)nc2c1	> 40 µM
CN(C)CCCNc1cc2nc(/C=C3/C(=O)Nc4cc(N5CCN(C)CC5)ccc43)n(C)c(=O)c2cc1F	30 µM

---

Measured Kd values are reported for all entries that follow.
test: Binding affinity to hairpin duplex DNA (unknown origin) by SPR method

STRUCTURE_STRING	Kd
CN(C)CCCNc1cc2nc(/C=C3/C(=O)Nc4cc(N5CCN(C)CC5)ccc43)n(C)c(=O)c2cc1F	> 40 µM
CN1CCN(c2cc3c(cc2F)/C(=C/c2nc4cc(NCCN5CCCCC5)c(F)cc4c(=O)[nH]2)C(=O)N3)CC1	16 µM
CN(C)CCNc1cc2nc(/C=C3\C(=O)Nc4cc(N5CCN(C)CC5)c(F)cc43)[nH]c(=O)c2cc1F	15 µM

---

molecular target: Quadruplex DNA; assay: Binding affinity to HTG21 telomeric G-quadruplex DNA (unknown origin) by SPR method

STRUCTURE_STRING	TARGET_SYSTEM	READOUT_UNITS	VALUE_PREFIX	Kd
O=C1Nc2ccccc2/C1=C/c1nc2cc(NCCCN3CCOCC3)c(F)cc2c(=O)[nH]1	Quadruplex DNA	µM	>	40
CCN(CC)CCNc1cc2nc(/C=C3\C(=O)Nc4cc(N5CCN(C)CC5)c(F)cc43)[nH]c(=O)c2cc1F	Quadruplex DNA	µM	=	22
CCN(CC)CCCNc1cc2nc(/C=C3\C(=O)Nc4cc(N5CCOCC5)c(F)cc43)[nH]c(=O)c2cc1F	Quadruplex DNA	µM	>	40
CN1CCN(c2cc3c(cc2F)/C(=C/c2nc4cc(NCCN5CCCCC5)c(F)cc4c(=O)[nH]2)C(=O)N3)CC1	Quadruplex DNA	µM	=	8.8
CN(C)CCCN(CCCN(C)C)c1cc2nc(/C=C3\C(=O)Nc4ccccc43)[nH]c(=O)c2cc1F	Quadruplex DNA	µM	=	23
CN1CCN(c2ccc3c(c2)NC(=O)/C3=C\c2nc3cc(NCCN4CCCC4)c(F)cc3c(=O)[nH]2)CC1	Quadruplex DNA	µM	>	40
CCN(CC)CCCNc1cc2nc(/C=C3\C(=O)Nc4cc(N5CCN(C)CC5)ccc43)[nH]c(=O)c2cc1F	Quadruplex DNA	µM	=	7.4
CN(C)CCCNc1cc2nc(/C=C3\C(=O)Nc4ccccc43)[nH]c(=O)c2cc1F	Quadruplex DNA	µM	>	40

---

test system: Quadruplex DNA; experiment: Stabilization of F21T telomeric G-quadruplex DNA (unknown origin) assessed as change in melting temperature at 1 uM by FRET assay; assay type: nucleic-acid assay
PROPERTY: ΔTm (°C)

STRUCTURE_STRING	READOUT_VALUE
CN(C)CCNc1cc2nc(/C=C3\C(=O)Nc4cc(N5CCN(C)CC5)ccc43)[nH]c(=O)c2cc1F	18
CN(C)CCCNc1ccc2c(=O)[nH]c(/C=C3\C(=O)Nc4cc(N5CCN(C)CC5)ccc43)nc2c1	16.5
CN(C)CCCNc1cc2nc(/C=C3\C(=O)Nc4cc(N(C)CCCN(C)C)c(F)cc43)[nH]c(=O)c2cc1F	18.2
CN(C)CCNc1cc2nc(/C=C3\C(=O)Nc4cc(N5CCN(C)CC5)c(F)cc43)[nH]c(=O)c2cc1F	22.5
CN(C)CCCNc1cc2nc(/C=C3\C(=O)Nc4cc(N5CCN(C)CC5)c(F)cc43)[nH]c(=O)c2cc1F	24.6
CN(C)CCCNc1cc2nc(/C=C3\C(=O)Nc4cc(N5CCN(C)CC5)ccc43)[nH]c(=O)c2cc1F	23.5
CN1CCN(c2cc3c(cc2F)/C(=C/c2nc4cc(N5CCN(C)CC5)c(F)cc4c(=O)[nH]2)C(=O)N3)CC1	12.2
CN1CCN(c2cc3c(cc2F)/C(=C/c2nc4cc(NCCCN5CCCC5)c(F)cc4c(=O)[nH]2)C(=O)N3)CC1	23.6
CN1CCN(c2cc3c(cc2F)/C(=C/c2nc4cc(NCCN5CCCCC5)c(F)cc4c(=O)[nH]2)C(=O)N3)CC1	21.4
CN(C)CCCN(C)c1cc2c(cc1F)/C(=C/c1nc3cc(NCCN(C)C)c(F)cc3c(=O)[nH]1)C(=O)N2	20.1
CN1CCN(c2cc3c(cc2F)/C(=C/c2nc4cc(NCCCn5ccnc5)c(F)cc4c(=O)[nH]2)C(=O)N3)CC1	11.5
CN(C)CCCNc1ccc2c(=O)[nH]c(/C=C3\C(=O)Nc4ccccc43)nc2c1	8.4
CN1CCN(c2ccc3c(c2)NC(=O)/C3=C\c2nc3cc(NCCN4CCCC4)c(F)cc3c(=O)[nH]2)CC1	18.6
CCN(CC)CCCN1C(=O)/C(=C\c2nc3cc(N4CCN(C)CC4)c(F)cc3c(=O)[nH]2)c2ccccc21	5.8
CCN(CC)CCNc1cc2nc(/C=C3\C(=O)Nc4cc(N5CCN(C)CC5)c(F)cc43)[nH]c(=O)c2cc1F	23.1
